# assayOverview: chemical genetic growth profiling, strain panel (AID 1159580);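 note: tested at 20 µM; growth read once vehicle control cultures reached saturation at 30 °C; lower values mean less growth of the strain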
# testContext: S. cerevisiae deletion strains, growth OD, locus YER167W, strain BCK2
The campaign covered roughly 5,500 compounds. About 2,000 (36%) were called active. Not shown: some 18% with an inconclusive outcome. Cut-off read from the data, not from the text of the source: active = normalized growth mostly below about 0.91 (no sharp cut-off); inconclusive = no clear call, values can overlap the other calls; inactive = mostly above about 0.92. The list shows a part of the results.
Would you mind answering with one of these outcomes? y for active, n for inactive

QUERY: Which result was noted for this molecule in the test: C[C@H](CCC(=O)O)[C@H]1CCC2C3C(CC[C@@]21C)[C@@]1(C)CC[C@@H](O)C[C@H]1C[C@H]3O (stereo partly specified)
RESULT: n

QUERY: Could you please tell me the result logged for C=C1C2CC[C@@]3(C)[C@H](c4ccoc4)OC(=O)C[C@]13O[C@H]1CC(=O)C(C)(C)C(CC(=O)OC)[C@@]21C (stereo partly specified) in this assay?
RESULT: n

QUERY: Assay result, entry CC1=C2[C@H]3OC(=O)[C@@H](C)[C@@H]3CC[C@@]2(C)C=CC1=O — outcome?
RESULT: n

QUERY: Record request — test call for N[C@@H]1[C@@H](O)[C@H](O)[C@@H](CO)O[C@H]1O
RESULT: n

QUERY: Per the assay record, what outcome was assigned to Cc1cc(O)c(C=O)c2c1C(=O)Oc1c(C)c(O)c3c(c1O2)C(O)OC3=O (stereo unspecified) ?
RESULT: n

QUERY: What did the test return for CSc1ccc2c(c1)N(CCC1CCCCN1C)c1ccccc1S2 (stereo unspecified) ?
RESULT: y
